tested on: PPARg:RXRa 270nM:90nM, anti-RXR (NR concentration 270 nM, RXRa partner concentration 90 nM); assay: PBM binding z-score (relative to random genomic background probes); higher = stronger binding; sequences stand for … in GC…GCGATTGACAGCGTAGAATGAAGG
Returns met if the recorded PBM binding z-score is greater than or equal to 3, and not met otherwise.

Use these answered entries as a reference point.
CGTCCAAGGTCAGCAGGTCGGTGAAAGCGACGTG met
CGAACTAGGTCATCCAGGACAGGGAATACATTGA met
GTACCAAGGTGAATATGTCGTTGATGAGTAGGCG not met
CCTAGGAGGCCAATCTGGGTCACTCAAGGCTTGA not met
CCTACTGTGCCAAAAAGGTCATTGATGCCGATAA met

# check: PBM binding z-score of `TCTTGTAGATCAATAGATGTTAAGAAAGTGCGCT` is greater than or equal to 3
not met

# check: PBM binding z-score of `TATACAGGGTCAAAGGCGAGAGTACGAATGTCGA` is greater than or equal to 3
met

# check: PBM binding z-score of `TCTTGTAGATCAACAGGATGTTAAGAAAGATCGA` is greater than or equal to 3
not met

# check: PBM binding z-score of `CCTACTGGGACATCAGGTCATTGATATCAACGTT` is greater than or equal to 3
met

# check: PBM binding z-score of `ACTAGCAGGGCAAGTTTGGGTCACTCAAACAAAG` is greater than or equal to 3
not met

# check: PBM binding z-score of `TCAGACAGGTGAAAGTAACTCAGGTACGCAGTCG` is greater than or equal to 3
not met

====

system: PPARg:RXRa DBDmut IVT, anti-RXR (DBD mutation: RXRa K156A/R161A, NR concentration 270 nM, RXRa partner concentration 90 nM); assay: PBM binding z-score (relative to random genomic background probes); higher = stronger binding; sequences stand for … in GC…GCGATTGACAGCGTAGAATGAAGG
OBSERVED_PROPERTY: PBM binding z-score
// return a plain number; no unit text

Give a short answer stating reported PBM binding z-score for `TAGCCTAGGTCATTCAGGGGCCAGTACAGAAAGC` .
1.84

Give a short answer stating reported PBM binding z-score for `ACAGACCGGTGATGAAGGTAACTCAGGCTATCAT` .
-0.264

Give a short answer stating reported PBM binding z-score for `CTTCCAAGGTCAGCAGGTCAGTGAAAGCGACGTG` .
3.41

Give a short answer stating reported PBM binding z-score for `TAGCGTAGGTCATGCGGGCCAGTATAGTGTCGGC` .
0.799

Give a short answer stating reported PBM binding z-score for `GCGACTGGGGCAAAGCAGGTTGCCATAAGGTTGG` .
4.34

Give a short answer stating reported PBM binding z-score for `GCGACTGAGGCAAAGCAGGTTACCATAAGGTTGG` .
0.099

Give a short answer stating reported PBM binding z-score for `TCTTGTAGATCAACAGGAGGTTAAGAAAGATCGA` .
1.3

====

Property: PBM binding z-score; scope: individual sequences
test system: FXR:RXRa (NR concentration 270 nM, RXRa partner concentration 90 nM); assay: PBM binding z-score (relative to random genomic background probes); higher = stronger binding; sequences stand for … in GC…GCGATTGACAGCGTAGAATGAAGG
// return a plain number; no unit text

Give a short answer stating reported PBM binding z-score for `TCTCGGAGGACGCGAAGGTCAGAGCTTTCCAGAG` .
0.524

Give a short answer stating reported PBM binding z-score for `CGAACGAGGGCATGAGTTGATAGCAAATGCCGAT` .
0.545
